molecular target: HCV NS3 helicase NS3h_1b(con1) (Hepatitis C virus genotype 1b, UniProt Q9WMX2); construct: truncated C-terminally His-tagged NS3 proteins lacking the N-terminal protease, called NS3h; His-tag (C); made in house; experiment: MBHA screen of NCI mechanistic set library at 20 μM (percent inhibition, compound interference); format: biochemical; conditions: compounds at 20 μM, MBHA with DNA substrate; assay interference calculated with Equation 2
Sequence (Q9WMX2 1192-1657): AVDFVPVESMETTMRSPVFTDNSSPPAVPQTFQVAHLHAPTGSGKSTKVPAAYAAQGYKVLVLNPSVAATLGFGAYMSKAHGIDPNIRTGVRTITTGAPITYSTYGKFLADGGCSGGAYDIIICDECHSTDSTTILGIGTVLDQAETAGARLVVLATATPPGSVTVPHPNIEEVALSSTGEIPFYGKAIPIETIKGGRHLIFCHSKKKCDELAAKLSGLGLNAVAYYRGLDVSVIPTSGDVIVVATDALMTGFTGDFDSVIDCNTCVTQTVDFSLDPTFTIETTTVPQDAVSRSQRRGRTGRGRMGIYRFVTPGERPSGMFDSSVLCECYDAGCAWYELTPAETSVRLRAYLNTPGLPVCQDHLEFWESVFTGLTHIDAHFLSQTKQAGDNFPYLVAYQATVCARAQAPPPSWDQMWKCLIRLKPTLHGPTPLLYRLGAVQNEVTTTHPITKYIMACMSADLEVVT
MEASUREMENT_LABEL: Int.* (Ratio) (Interference)

INSERT INTO measurements (compound, measurement_label, value_observed) VALUES
  ('C=C1C(=O)O[C@@H]2/C=C(/C)C(=O)C[C@H]3OC(C)(C)O[C@]3(C)C[C@@H](OC(=O)/C(C)=C\C)[C@@H]12', 'Int.* (Ratio) (Interference)', 0.81),
  ('COc1cc2c(c(O)c1OC)-c1c(cc(OC)c(OC)c1OC)C[C@@H](C)[C@@H](C)C2', 'Int.* (Ratio) (Interference)', 0.95),
  ('C[C@@H](N)C(=O)NC(CO)C(O)C(N)C=O.Cl (stereo partly drawn)', 'Int.* (Ratio) (Interference)', 1.15),
  ('Cc1cc(Cl)ccc1N1C(=O)C(=O)C(c2nc3ccccc3o2)C(=O)C1=O', 'Int.* (Ratio) (Interference)', 0.92),
  ('O=S(=O)(O)SC/C=C/CSS(=O)(=O)O', 'Int.* (Ratio) (Interference)', 1.03),
  ('CC[C@@]12CCCN3CC[C@]4(c5cccc(OC)c5N(C(C)=O)[C@@H]4CC1)[C@H]32', 'Int.* (Ratio) (Interference)', 0.91),
  ('CC1C(Oc2c(-c3ccc(O)c(O)c3)oc3c(O)cc(O)cc3c2=O)OC(O)C(O)C1O (stereo not drawn)', 'Int.* (Ratio) (Interference)', 0.87),
  ('Nc1ccn([C@@H]2C=C(CO)[C@@H](O)[C@H]2O)c(=O)n1', 'Int.* (Ratio) (Interference)', 0.93),
  ('COC(=O)C1=C(C(=O)OC)SC2(S1)C(C(=O)OC)=C(C(=O)OC)Sc1c2ssc1=O', 'Int.* (Ratio) (Interference)', 0.85),
  ('O=c1oc2ccccc2cc1-c1ccc([N+](=O)[O-])cc1', 'Int.* (Ratio) (Interference)', 0.82),
  ('CC(C)(C)c1ccc(OC2CCO2)cc1 (stereo not drawn)', 'Int.* (Ratio) (Interference)', 0.97),
  ('NC(=O)C1=C[C@H]2[C@H]3C=C[C@@]2(O)C(=O)O[C@@H]3O1', 'Int.* (Ratio) (Interference)', 0.99),
  ('C[Si](C)(CN)CN.[Cl][Pt][Cl]', 'Int.* (Ratio) (Interference)', 0.93),
  ('CCOC(=O)Nc1cc2c(c(N)n1)N=C(c1ccccc1)CN2', 'Int.* (Ratio) (Interference)', 0.91),
  ('Cc1c(Cl)ccc2c1NC(=O)C2(O)C(C(=O)c1ccccc1)c1ccccc1 (stereo not drawn)', 'Int.* (Ratio) (Interference)', 1.01),
  ('CN(C)CCCCN1CCc2c(n(C)c3ccccc23)C1=O', 'Int.* (Ratio) (Interference)', 1.09),
  ('Cc1cc(-c2nc3ccccc3s2)ccc1N', 'Int.* (Ratio) (Interference)', 0.98),
  ('O=C1Oc2ccccc2C(=O)/C1=C1\C=C(c2ccccc2)SS1', 'Int.* (Ratio) (Interference)', 1.00);
